Values were extracted from ChEMBL document CHEMBL4888484.

Listed compounds paired with reported % Inhibition
- Tested on: Plasmodium falciparum
- protocolNotes: Primary screen in NF54 nanoGlo assay, in single point, at 2uM, 72h
- Assay type: functional, Erythrocyte
- studyConditions: timepoint 72 hour
Hit rate of the full screen: of about 150,000 compounds, about 540 (0.36%) showed an effect of 50% or more. What follows is part of a selection rich in strong results, with near analogues and random picks from the rest.
Reply numerically in %, unit not repeated.

// known answers, use as guide
>>> number("Cc1ccccc1C(=O)Cc1ncc[nH]1")
87
>>> number("Cc1ccsc1CN(CCN1CCOCC1)[C@H]1CCCNC1")
-5
>>> number("COc1cccc(C(=O)N2CCC([C@]3(CCC(C)C)NC(=O)N(CCN(C)C)C3=O)CC2)c1OC")
-8

Query block: Provide only the value of recorded % Inhibition for "CCN(CC)c1ncc(CN2CC[C@H](NS(C)(=O)=O)C2)s1"
Result block: -14

Query block: Provide only the value of recorded % Inhibition for "O=c1c2ccccc2nc(Cc2ccccc2)n1Nc1ccccc1"
Result block: -13

Query block: Provide only the value of recorded % Inhibition for "COCCNc1c(-c2ccccc2)nc2sc(C(=O)NCc3cccnc3)c(C)n12"
Result block: -31

Query block: Provide only the value of recorded % Inhibition for "CC(C)[C@H](NC(=O)Nc1cc(Cl)ccc1Cl)c1ncc[nH]1"
Result block: -5

Query block: Provide only the value of recorded % Inhibition for "COC(=O)[C@H](CS(=O)(=O)Nc1cc(C)n(C)n1)c1ccccc1"
Result block: 3

Query block: Provide only the value of recorded % Inhibition for "Cc1cc(O)nc([C@H](C)N(C)CC2CCOCC2)n1"
Result block: -12

Query block: Provide only the value of recorded % Inhibition for "Cc1ccc(CNC(=O)CN2CCN(C(=O)Nc3ccc(Cl)cc3)CC2=O)o1"
Result block: 7

Query block: Provide only the value of recorded % Inhibition for "Cc1ccc(CC(=O)Nc2cc(C(F)(F)F)n(C)n2)cn1"
Result block: -6

====

Listed compounds paired with reported % Inhibition
- Tested on: Plasmodium falciparum
- protocolNotes: Primary screen in NF54 nanoGlo assay, in single point, at 2uM, 72h
- Type: functional, Erythrocyte
- studyConditions: timepoint 72 hour
Out of some 150,000 compounds screened, about 540 (0.36%) showed an effect of 50% or more. Only a selection was taken, and strong results are over-represented in it overall.
Reply numerically in %, unit not repeated.

// known answers, use as guide
>>> number("COc1ccccc1-c1cn[nH]c1-c1ccc(OCc2cc(C)ccc2C)cc1O")
0
>>> number("COc1ccc(Oc2cn[nH]c2-c2ccc(OCc3ccc(F)cc3)cc2O)cc1")
4
>>> number("O=C(Cc1n[nH]c(=O)c2ccccc12)N[C@H]1CCCc2c1[nH]c1c(Cl)cccc21")
3
>>> number("COc1ccc2c(c1)C1(CC1)CN(C(=O)Nc1ccnnc1C)C2")
-11
>>> number("Oc1cc(OCc2ccccc2F)ccc1-c1[nH]ncc1-c1ccccc1")
52

Query block: Would you please give the reported % Inhibition of Cc1noc2ncnc(N3CCCC3CC(O)c3cnn(C)c3)c12 (stereo not given) with Plasmodium falciparum?
Result block: 4

Query block: Would you please give the reported % Inhibition of "COc1ccccc1Oc1cn[nH]c1-c1ccc(OCc2ccccc2C)cc1O" with Plasmodium falciparum?
Result block: -7

Query block: Would you please give the reported % Inhibition of "O=C(Nc1nc(C(=O)N2CCN(c3ncccn3)CC2)co1)c1ccsc1" with Plasmodium falciparum?
Result block: -2

Query block: Would you please give the reported % Inhibition of COCCC(CNC(C)c1nccnc1C)NC(=O)OC(C)(C)C (stereo not given) with Plasmodium falciparum?
Result block: -12

Query block: Would you please give the reported % Inhibition of "O=S(=O)(CCC1Cc2ccccc2C1)N1CCC[C@@](O)(C(F)(F)F)CC1" with Plasmodium falciparum?
Result block: 34
